studySystem: D(2) dopamine receptor (Rattus norvegicus)
Sequence (P61169 whole entry): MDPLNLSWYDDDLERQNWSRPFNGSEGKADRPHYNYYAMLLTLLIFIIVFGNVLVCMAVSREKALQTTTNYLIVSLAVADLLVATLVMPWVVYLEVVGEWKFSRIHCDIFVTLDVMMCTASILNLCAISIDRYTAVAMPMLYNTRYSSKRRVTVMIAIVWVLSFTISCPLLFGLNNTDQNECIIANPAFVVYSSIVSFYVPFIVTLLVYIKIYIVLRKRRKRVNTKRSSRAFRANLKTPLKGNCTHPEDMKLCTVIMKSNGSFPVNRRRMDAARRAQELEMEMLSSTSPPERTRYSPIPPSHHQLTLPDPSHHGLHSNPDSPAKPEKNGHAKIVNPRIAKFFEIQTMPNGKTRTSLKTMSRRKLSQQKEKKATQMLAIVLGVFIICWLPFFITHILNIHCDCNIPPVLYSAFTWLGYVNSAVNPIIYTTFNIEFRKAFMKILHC
testMethodNotes: Displacement of [3H]raclopride from dopamine D2 receptor in Wistar rat striatal membrane by liquid scintillation counting
Field: IC50. Provide a value for each of the compounds that follow.
Give bare numbers, in µM.

structureNotation: COc1cc2c(cc1Oc1c(O)c(OC)cc3c1[C@H](Cc1ccc(OC)c(-c4cc(C=O)ccc4O)c1)N(C)CC3)C(=O)N(C)CC2
studySystem: D(2) dopamine receptor (Rattus norvegicus)
unitText: µM
numericReadout: 10

Consider now this further compound.
Form: Entry = COc1cc2c3cc1Oc1c(O)c(OC)cc4c1[C@@H](C(=O)c1ccc(O)c(c1)-c1cc(ccc1OC)C[C@H]3N(C)CC2)N(C)CC4 | System = D(2) dopamine receptor (Rattus norvegicus) | IC50 = ____ 16.2
